experimentalTarget: T1, CD71 apical domain (UniProt P02786 189-383, limits assumed)
T1 construct: domain: Apical domain
T1 sequence (P02786 189-383 limits assumed): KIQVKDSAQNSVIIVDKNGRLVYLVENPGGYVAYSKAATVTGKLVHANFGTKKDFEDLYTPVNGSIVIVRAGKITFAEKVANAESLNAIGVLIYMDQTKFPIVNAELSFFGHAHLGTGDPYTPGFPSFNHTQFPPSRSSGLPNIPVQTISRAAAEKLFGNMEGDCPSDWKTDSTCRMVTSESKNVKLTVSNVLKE
testProtocol: solution ELISA, signal ratio to HSA
readoutName: apical domain:HSA

SEQ ID NO 108 (designed binder, FN3 domain) MLPAPKNLVVSRVTEDSARLSWTAPDAAFDSFFIGYLEPQPPGEAIQLRVPGSERSYDLTGLKPGTEYNVTIQGVKGGFPSMPLSAIFTT
182

I: SEQ ID NO 140 (designed binder, FN3 domain) MLPAPKNLVVSRVTEDSARLSWTAPDAAFDSFFIGYLEPQPPGEAIQLEVPGSERSYDLTGLKPGTEYNVTIQGVKGGFPSMPLSAIFTT
II: SEQ ID NO 170 (designed binder, FN3 domain) MLPAPKNLVVSRVTEDSARLSWTAPDAAFDSFYIAYAEPRPDGEAIHLLVPGSERSYDLTGLKPGTEYSVLIHGVKGGLLSSPLLAHFTT
III: SEQ ID NO 118 (designed binder, FN3 domain) MLPAPKNLVVSRVTEDSARLSWTAPDAAFDSFYIAYAEPRPDGEAIWLVVPGSERSYDLTGLKPGTEYSVLIHGVKGGLLSSPLVASFTT
IV: SEQ ID NO 196 (designed binder, FN3 domain) MLPAPKNLVVSRVTEDSARLSWTAPDAAFDSFYIAYAEPRPDGEAIVLWVPGSERSYDLTGLKPGTEYSVLIHGVKGGLLSSPLRASFTT
V: SEQ ID NO 150 (designed binder, FN3 domain) MLPAPKNLVVSRVTEDSARLSRTAPDAAFDSFYIAYAEPRPDGEAIVLIVPGSERSYDLTGLKPGTEYSVLIHGVKGGLLSSPLSAIFTT
Q: Given 5 binders, produce a descending ranking by apical domain:HSA. In your reply, arrange the labels in the requested order.
Ans: III, IV, II, V, I

All values here come from patent US20220332795A1.
